In this section we review reported Slope values for a set of molecules.
# Test system: Ae. aegypti adults
# method-notes: Adult mosquito bottle bioassay
# Format: in vivo, Aedes aegypti
# particulars: 24 h exposure; probit
# Description: Adult mosquitoes were tested using the bottle bioassay method of Brogden and McAllister (J. Am. Mosq. Control Assoc., 14:159–64, 1998) with minor modifications. […] Morbidity and mortality were recorded at 15, 30, 45, and 60 min and 24 hour intervals. […] The dose-mortality data was evaluated with probit analysis, using the LdP Line software, to determine LC50 and LC90 values. […]
// response body must contain only the number

                                   molecule  result_number
0  C[C@@H]1CC(=O)C2OC23CCC(C2(C)CO2)C[C@@]13C (some centres unmarked) [Compound 18, nootkatone-1,10–11,12-diepoxide]          4.472
1  C=C(C)[C@@H]1CCC2=CC(=O)C[C@@H](C)[C@]2(C)C1 [Compound 7, Nootkatone]           6.22
2  C=C(C)[C@@H]1CCC2=CC(=O)C[C@@H](C)[C@]2(C)C1 [Compound 8, Nootkatone]          4.635
3  C[C@@H]1CCC=C2CCC(C3(C)CO3)C[C@]21C (some centres unmarked) [Compound 13, valencene-11,12-epoxide]          1.581

Pending molecule:
Consider the molecule CC(C)=CCc1ccc(O)c(=O)cc1C(C)C and give its measured Slope. 1.327

Value source: patent US7230033B2
